Data provenance is ChEMBL document CHEMBL4316614.

- experimental_target: DNA topoisomerase II (Homo sapiens, UniProt P11388+Q02880)
- measurement_protocol: Inhibition of topoisomerase 2 in human MDA-MB-231 cells assessed as reduction in cell growth measured after 72 hrs by MTT assay
- Assay type: cell-based
I'd appreciate it if you marked entries class 1 when IC50 is lower than 40 µM and class 0 when it is not.

Worked examples, 8 compounds total:
| compound | experimental_target | qualitative_label |
| --- | --- | --- |
| COc1ccc(C(O)c2cc(O)c3c(c2O)C(=O)c2ccccc2C3=O)cc1Br (centres undefined) | DNA topoisomerase II (Homo sapiens, UniProt P11388+Q02880) | class 0 |
| O=C1c2ccccc2C(=O)c2c(O)c(C(c3ccc(OC(F)(F)F)cc3)N(CCCl)CCCl)cc(O)c21 (centres undefined) | DNA topoisomerase II (Homo sapiens, UniProt P11388+Q02880) | class 1 |
| O=C1c2ccccc2C(=O)c2c(O)c(C(c3ccc(C(F)(F)F)cc3)N(CCCl)CCCl)cc(O)c21 (centres undefined) | DNA topoisomerase II (Homo sapiens, UniProt P11388+Q02880) | class 0 |
| O=C1c2ccccc2C(=O)c2c(O)c(C(c3ccsc3)N(CCCl)CCCl)cc(O)c21 (centres undefined) | DNA topoisomerase II (Homo sapiens, UniProt P11388+Q02880) | class 1 |
| O=C1c2ccccc2C(=O)c2c(O)c(C(O)c3ccc(Cl)s3)cc(O)c21 (centres undefined) | DNA topoisomerase II (Homo sapiens, UniProt P11388+Q02880) | class 0 |
| O=C1c2ccccc2C(=O)c2c(O)c(C(O)c3cccs3)cc(O)c21 (centres undefined) | DNA topoisomerase II (Homo sapiens, UniProt P11388+Q02880) | class 0 |
| CSc1ccc(C(c2cc(O)c3c(c2O)C(=O)c2ccccc2C3=O)N(CCCl)CCCl)cc1 (centres undefined) | DNA topoisomerase II (Homo sapiens, UniProt P11388+Q02880) | class 0 |
| Cc1ccc(C(O)c2cc(O)c3c(c2O)C(=O)c2ccccc2C3=O)s1 (centres undefined) | DNA topoisomerase II (Homo sapiens, UniProt P11388+Q02880) | class 0 |

For the next question, use this compound.
Hi there! Is IC50 for CSc1ccc(C(O)c2cc(O)c3c(c2O)C(=O)c2ccccc2C3=O)cc1 (centres undefined) below 40 µM, do you know?
class 0
